molecular target: 3-phosphoinositide-dependent protein kinase 1 (Homo sapiens, UniProt O15530); assay: Inhibition of PDK1
Sequence (O15530 whole entry): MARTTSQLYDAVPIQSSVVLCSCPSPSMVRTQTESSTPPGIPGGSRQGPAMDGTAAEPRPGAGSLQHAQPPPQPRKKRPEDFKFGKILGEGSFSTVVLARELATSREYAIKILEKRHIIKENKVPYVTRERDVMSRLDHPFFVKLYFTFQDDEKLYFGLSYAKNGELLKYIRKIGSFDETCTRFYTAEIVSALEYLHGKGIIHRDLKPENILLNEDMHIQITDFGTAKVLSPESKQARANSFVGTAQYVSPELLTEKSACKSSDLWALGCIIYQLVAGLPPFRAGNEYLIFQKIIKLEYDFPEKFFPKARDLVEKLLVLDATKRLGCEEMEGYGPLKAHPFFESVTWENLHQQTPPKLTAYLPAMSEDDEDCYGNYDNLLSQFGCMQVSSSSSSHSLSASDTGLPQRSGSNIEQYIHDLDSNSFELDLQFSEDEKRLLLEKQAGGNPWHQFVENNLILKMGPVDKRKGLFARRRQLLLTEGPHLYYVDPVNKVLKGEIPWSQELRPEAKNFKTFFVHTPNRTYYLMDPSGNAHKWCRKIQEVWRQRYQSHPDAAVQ
Output schema: class label derived from IC50. Mapping: low interval = under 3 nM, middle interval = from 3 nM up to 100 nM, high interval = 100 nM and over

Inquiry: Tag the class for `CNc1nc(-c2ccc3c(N)n[nH]c3c2)cc(N2C[C@@H](C(=O)NC3CCCCC3)OC[C@H]2C)n1`
Reply text: middle interval

Inquiry: Same question for `Nc1nc(-c2ccc3c(N)n[nH]c3c2)cc(N2CCC[C@H](C(=O)Nc3ccccc3)C2)n1` please.
Reply text: middle interval

Inquiry: Same question for `Nc1nc(-c2ccc3c(N)n[nH]c3c2)cc(N2CCC[C@@H](C(=O)Nc3ccccc3)C2)n1` please.
Reply text: high interval

Inquiry: Same question for `C[C@@H]1C[C@@H](N(C)C(=O)OC(C)(C)C)CN(c2cc(-c3ccc4c(N)n[nH]c4c3)nc(N)n2)C1` please.
Reply text: low interval

Inquiry: Same question for `CC(C)(C)OC(=O)N[C@@H]1CCCN(c2cc(-c3ccc4c(N)n[nH]c4c3)nc(N)n2)C1` please.
Reply text: middle interval

Inquiry: Same question for `CNc1nccc(-c2ccc3c(N)n[nH]c3c2)n1` please.
Reply text: high interval

Inquiry: Same question for `C[C@@H]1CC[C@H](C(=O)NC2CCCCC2)CN1c1cc(-c2ccc3c(N)n[nH]c3c2)nc(N)n1` please.
Reply text: middle interval

Inquiry: Same question for `COc1cc(-c2ccc3c(N)n[nH]c3c2)nc(N)n1` please.
Reply text: high interval

Inquiry: Same question for `CC[C@@H]1CO[C@H](C(=O)Nc2ccccc2)CN1c1cc(-c2ccc3c(N)n[nH]c3c2)nc(NC)n1` please.
Reply text: middle interval

Inquiry: Same question for `C[C@@H]1C[C@@H](N(C)C(=O)CC(C)(C)C)CN(c2cc(-c3ccc4c(N)n[nH]c4c3)nc(N)n2)C1` please.
Reply text: low interval

Inquiry: Same question for `Nc1nc(-c2ccc3c(N)n[nH]c3c2)cc(N2CCC[C@H](C(=O)NC3CCCC3)C2)n1` please.
Reply text: high interval

Inquiry: Same question for `CC(C)c1cc(-c2ccc3c(N)n[nH]c3c2)nc(N)n1` please.
Reply text: high interval

Inquiry: Same question for `CC(C)(C)OC(=O)N[C@H]1CCCN(c2cc(-c3ccc4c(N)n[nH]c4c3)nc(N)n2)C1` please.
Reply text: high interval

Inquiry: Same question for `CNc1nc(-c2ccc3c(N)n[nH]c3c2)cc(N2C[C@@H](C(=O)Nc3ccccc3)CC[C@H]2C)n1` please.
Reply text: low interval

* * *

Field: IC50. Provide a value for each of the molecules that follow.
target: TGF-beta receptor type-1 (Homo sapiens); experiment: Inhibition of ALK5; settings: read-out: pIC50 (converted)
Sequence (P36897 whole entry): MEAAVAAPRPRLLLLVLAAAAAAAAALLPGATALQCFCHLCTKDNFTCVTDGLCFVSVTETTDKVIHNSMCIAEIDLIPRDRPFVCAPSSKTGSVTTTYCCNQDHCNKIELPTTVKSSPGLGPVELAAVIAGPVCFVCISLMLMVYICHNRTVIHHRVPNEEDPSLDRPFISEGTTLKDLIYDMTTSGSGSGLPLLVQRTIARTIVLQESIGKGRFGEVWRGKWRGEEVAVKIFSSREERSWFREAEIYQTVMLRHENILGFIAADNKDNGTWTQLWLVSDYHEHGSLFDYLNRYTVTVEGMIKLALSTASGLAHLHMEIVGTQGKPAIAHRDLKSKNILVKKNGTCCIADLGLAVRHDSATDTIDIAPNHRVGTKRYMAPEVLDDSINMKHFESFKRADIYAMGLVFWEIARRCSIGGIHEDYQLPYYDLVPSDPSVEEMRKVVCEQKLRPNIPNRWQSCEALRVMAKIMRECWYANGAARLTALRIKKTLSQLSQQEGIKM

Inquiry: I would be grateful if you could share the reported IC50 for `C[C@@H]1C[C@@H](N(C)C(=O)OC(C)(C)C)CN(c2cc(-c3ccc4c(N)n[nH]c4c3)nc(N)n2)C1` .
Reply text: > 10 µM

Inquiry: Same question for `C[C@@H]1CCCCN1c1cc(-c2ccc3c(N)n[nH]c3c2)nc(N)n1` please.
Reply text: 7.94 µM

Inquiry: Same question for `Nc1nc(-c2ccc3c(N)n[nH]c3c2)cc(N2CCC[C@H](C(=O)Nc3ccccc3)C2)n1` please.
Reply text: > 10 µM

Inquiry: Same question for `C[C@@H]1C[C@@H](N(C)C(=O)CC(C)(C)C)CN(c2cc(-c3ccc4c(N)n[nH]c4c3)nc(N)n2)C1` please.
Reply text: > 10 µM
